Target: human M2 receptor (Homo sapiens)
Sequence (P08172 1-466): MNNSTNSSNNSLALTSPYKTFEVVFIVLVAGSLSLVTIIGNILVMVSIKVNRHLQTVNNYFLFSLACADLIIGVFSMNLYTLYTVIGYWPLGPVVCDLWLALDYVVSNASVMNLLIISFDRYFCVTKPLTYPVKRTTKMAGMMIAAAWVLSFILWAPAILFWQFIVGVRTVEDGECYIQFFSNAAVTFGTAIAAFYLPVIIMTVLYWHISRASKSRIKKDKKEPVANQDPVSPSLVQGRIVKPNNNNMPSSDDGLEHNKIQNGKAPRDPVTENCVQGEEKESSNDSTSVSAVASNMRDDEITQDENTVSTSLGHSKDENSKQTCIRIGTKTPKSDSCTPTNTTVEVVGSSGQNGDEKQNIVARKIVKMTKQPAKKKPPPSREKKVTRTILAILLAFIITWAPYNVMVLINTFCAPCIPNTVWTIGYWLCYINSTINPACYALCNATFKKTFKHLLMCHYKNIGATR
Details: Receptor activity EC50, M2-GIRK1/4 activation test, acetylcholine at EC20; allosteric potency; in some cases mean values from two or more determinations
READOUT_TYPE: EC50 (nM)

# COMPOUND, OUTPUT_UNIT, EC50
measured = [
    ("O=C(NC(c1c(F)cccc1F)C(F)(F)F)c1cn(-c2ccc(F)cc2F)c2nc(N3C[C@@H](O)CC3=O)ccc2c1=O (single isomer, unassigned) [Example 245]", "nM", 112),
    ("CNc1ccc2c(=O)c(C(=O)NC34CC5CC(C3)CC(C(F)(F)F)(C5)C4)cn(-c3ccc(F)cc3F)c2n1", "nM", 85),
    ("CN(C)c1ccc2c(=O)c(C(=O)NC3CC34CCCCC4)cn(-c3ccc(F)cc3Cl)c2n1 (stereo not shown)", "nM", 158),
    ("CN(c1ccc2c(=O)c(C(=O)NC34CC5CC(CC(C5)C3)C4)cn(-c3ccc(F)cc3F)c2n1)S(C)(=O)=O", "nM", 101),
    ("O=C(NC(c1c(F)cccc1F)C(F)(F)F)c1cn(-c2ccc(F)cc2F)c2nc(N3CCCC(O)C3=O)ccc2c1=O (stereo not shown) [Example 247]", "nM", 160),
]

A: CCC(NC(=O)c1cn(-c2ccc(F)cc2F)c2nc(N3CCCS3(=O)=O)ccc2c1=O)C(F)(F)F (stereo not shown)
B: CC(C)(CC(F)(F)F)NC(=O)c1cn(-c2c(F)cc(F)cc2Cl)c2nc(N3C[C@@H](O)[C@H](O)C3)ccc2c1=O (single isomer, unassigned) [Example 392]
C: CC[C@@H](NC(=O)c1cn(-c2ccc(F)cc2F)c2nc(N3CC4CNC(=O)C4C3)ccc2c1=O)C(F)(F)F (single isomer, unassigned) [Example 222]
D: C[C@H](NC(=O)c1cn(-c2c(F)cc(F)cc2F)c2nc(N3CCNC3=O)ccc2c1=O)C(F)(F)F
Your job: order these 4 records by EC50, ascending. Quick reminder: the answer is the labels in the order asked.
B, D, A, C
(B: 6 nM, D: 56 nM, A: 115 nM, C: 200 nM)
